- Test system: K-562 leukemia
- test description: NCI-60 one-dose screen, 48 h (100 = growth as untreated, 0 = no growth, -100 = all killed)
- experimental parameters: 10 µM unless noted
The panel holds about 83,000 compounds, 20% with a hit somewhere; the sample as a whole holds those more often.
endpoint name: growth (%)
# value in %; strip the unit string

A selection of reference data follows.
[
  {
    "compound": "CCOC(CNCc1cc(C)c2[nH]c3ccccc3c2c1C)OCC",
    "growth / %": 34.3
  },
  {
    "compound": "Cc1cn(C(C=O)OC(C=O)CO)c(=O)[nH]c1=O (stereo unspecified)",
    "growth / %": 104
  },
  {
    "compound": "Nc1ncnc2c1CN(Cc1ccccc1)CC2",
    "growth / %": 98.1
  },
  {
    "compound": "COc1ccc(NS(=O)(=O)N2CCCCC2)cc1",
    "growth / %": 93.8
  },
  {
    "compound": "COc1cc(C(=O)/C=C/c2cccc(Nc3ccnc4cc(Cl)ccc34)c2)cc(OC)c1OC",
    "growth / %": -6.81
  }
]

Name the recorded growth for `c1ccc(CN=C(NCc2ccccc2)NCc2ccccc2)cc1` .
35.7

Reported growth, compound `CCOC(=O)c1sc(NC(=O)COc2ccc(/C=C3\CCc4cc(OC)ccc4C3=O)cc2)nc1C` : ____
71.7

// growth lookup, key: `Cc1cnc2nc(-c3ccc(N(C)C)cc3)cn2c1`
97.1

Recorded growth of `COC(=O)c1c(NC(=O)CSc2nnnn2-c2ccc(OC)cc2)sc(C)c1C` , please.
81.5

# lookup: growth of `CC(=O)[C@H]1CC[C@H]2[C@@H]3C[C@H](C)C4=CC(=O)CC[C@]4(C)[C@H]3C(=O)C[C@]12C`
106

Return reported growth; argument: `O=[N+]([O-])c1ccc2[nH]cc(-c3c4ccccc4cc4[nH]c5ccc([N+](=O)[O-])cc5c34)c2c1`
9.96

Entry `c1ccc(Nc2ccc(Nc3nc(-c4ccccc4)nc4ccccc34)cc2)cc1` : reported growth = ?
6.16

Which growth value belongs to `O=c1[nH]c(SCc2ccccc2)nc2nc(Nc3ccc(NC(=S)Nc4ccccc4)cc3)nc(-c3ccc(O)cc3O)c12` ?
90.6

For the compound shown here, `O=C(NC1CCCCC1)c1ccc(Nc2ncnc3c2cnn3-c2ccccc2)cc1` , give the reported growth.
73.2

So what's the measured growth for this one? `CCN1CCN(c2nc(NNC(=O)Cc3ccccc3)nc(N3CCN(C(c4ccccc4)c4ccccc4)CC3)n2)CC1`
2.28

Report growth for Clc1ccc(C2c3ccccc3-c3nccn32)c(Cl)c1 (stereo unspecified) please.
35.5

Look up growth for this compound: `C/C(=C\CCc1ccoc1)CC/C=C(\C)CCCNc1ccc(F)cc1`
68.6

Can you look up the measured growth of CC1CN(C2CCCCC2)C(=O)NC1=O (stereo unspecified) for me?
103

Values were extracted from PubChem BioAssay (NCI).
